The reported measurements were obtained from the supplement of paper PMC10567573.

B1: RSPH3 (parent)
chain: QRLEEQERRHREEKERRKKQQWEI

Variants of: B1
Assay: protein stability index of a GFP-peptide fusion (GPS, HEK-293T) (PSI 1-6); higher = more stable;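 note: lentivirally expressed fusions sorted by FACS into six bins by GFP to DsRed ratio, PSI derived from sequencing read proportions per bin multiplied by bin number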
Settings: c terminus: a fixed tail appended
protein stability index below 4 gives condition not met; protein stability index at or above it gives condition met.

Sequence content: QRLEECERRHREEKERRKKQQWEI [Q6C]
Class assignment: condition met
--
Sequence content: QRLEEQERRHREEKERRKKQSWEI [Q21S]
Class assignment: condition not met
--
Sequence content: QRLEENERRHREEKERRKKQQWEI [Q6N]
Class assignment: condition met
--
Sequence content: QRLEEQERRHREIKERRKKQQWEI [E13I]
Class assignment: condition not met
--
Sequence content: QRLEEQERRHREEKSRRKKQQWEI [E15S]
Class assignment: condition met
--
Sequence content: QRLEEQNRRHREEKERRKKQQWEI [E7N]
Class assignment: condition met
